Entry source: PubChem BioAssay

Quick list: inhibition per entry.
molecular target: Botulinum neurotoxin type A (Clostridium botulinum) (UniProt P0DPI0); test: BoNT/A light chain protease inhibitors, biochemical, multiplex microsphere flow cytometry, validation set (AID 588460); conditions: at 10 µM, active compounds read high
Sequence (P0DPI0 whole entry, looked up): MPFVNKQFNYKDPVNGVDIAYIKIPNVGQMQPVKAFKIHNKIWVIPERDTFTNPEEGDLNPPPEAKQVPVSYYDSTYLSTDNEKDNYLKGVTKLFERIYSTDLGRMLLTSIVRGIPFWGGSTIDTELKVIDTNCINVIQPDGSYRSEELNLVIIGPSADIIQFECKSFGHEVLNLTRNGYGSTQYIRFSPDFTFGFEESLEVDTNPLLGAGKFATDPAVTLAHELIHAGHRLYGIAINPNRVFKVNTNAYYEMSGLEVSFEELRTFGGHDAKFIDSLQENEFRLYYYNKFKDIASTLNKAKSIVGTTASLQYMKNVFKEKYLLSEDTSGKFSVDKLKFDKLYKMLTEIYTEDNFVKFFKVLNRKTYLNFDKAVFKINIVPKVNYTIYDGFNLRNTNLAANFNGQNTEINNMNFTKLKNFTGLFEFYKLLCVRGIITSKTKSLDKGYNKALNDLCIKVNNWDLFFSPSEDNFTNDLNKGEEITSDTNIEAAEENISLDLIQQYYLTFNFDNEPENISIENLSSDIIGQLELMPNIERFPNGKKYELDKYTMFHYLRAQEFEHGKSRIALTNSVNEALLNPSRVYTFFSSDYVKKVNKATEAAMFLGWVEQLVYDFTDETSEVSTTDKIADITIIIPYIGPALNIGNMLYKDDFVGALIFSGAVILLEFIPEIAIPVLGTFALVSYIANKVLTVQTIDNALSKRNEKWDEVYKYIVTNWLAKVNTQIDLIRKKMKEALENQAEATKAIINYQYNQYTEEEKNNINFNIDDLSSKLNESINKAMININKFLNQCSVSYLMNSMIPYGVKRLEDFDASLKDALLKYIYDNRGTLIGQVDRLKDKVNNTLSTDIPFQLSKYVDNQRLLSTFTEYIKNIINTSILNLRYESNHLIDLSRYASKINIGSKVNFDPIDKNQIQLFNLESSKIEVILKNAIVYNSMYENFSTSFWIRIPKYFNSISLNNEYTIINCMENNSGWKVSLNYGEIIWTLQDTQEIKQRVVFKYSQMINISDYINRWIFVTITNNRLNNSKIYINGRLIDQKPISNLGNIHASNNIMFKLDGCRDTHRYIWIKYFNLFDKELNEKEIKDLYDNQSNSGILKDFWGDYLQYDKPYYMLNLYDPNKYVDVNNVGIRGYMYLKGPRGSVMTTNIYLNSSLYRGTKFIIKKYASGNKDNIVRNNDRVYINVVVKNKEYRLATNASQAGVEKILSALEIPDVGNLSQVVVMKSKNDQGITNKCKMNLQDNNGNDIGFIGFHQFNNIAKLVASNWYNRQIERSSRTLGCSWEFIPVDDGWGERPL
All answers are understood in %, so give the number only.

Example entries begin here.
{"columns": ["compound", "inhibition (%)"],
 "data": [
  ["O=C1ON=C(c2ccc(Cl)cc2)/C1=C/c1ccc(O)cc1", -2.3],
  ["CC(C)CCc1noc(CN2CCC(CCN3CCCC3=O)CC2)n1", 0.2]
]}

-- ask Given the compound O=C(N/N=C\c1cc([N+](=O)[O-])ccc1N1CCOCC1)c1ccccn1 , write its reported inhibition.
-- reply -1.3

-- ask Given the compound COc1cccc(CN2C(=O)N(C(C)C)C(N(O)C(=O)NC(C)C)C2(C)C)c1OC (stereo not given) , write its reported inhibition.
-- reply -0.8

-- ask Given the compound CC[C@H](CO)NCCN[C@H](CC)CO , write its reported inhibition.
-- reply -1.2

-- ask Given the compound COc1ccc(NC(=O)C2C(=O)N(CCO)C3(C)CC2c2ccccc2O3)cc1 (stereo not given) , write its reported inhibition.
-- reply 1.3

-- ask Given the compound O=C(C1CCCCC1)N1CC(=O)N2CCc3ccccc3C2C1 (stereo not given) , write its reported inhibition.
-- reply -1.1
